- assayedTarget: PGK^His (C. glutamicum 3-phosphoglycerate kinase) (Corynebacterium glutamicum)
- Construct: full length, N-terminal tenfold His tag (pET16b); 47 kDa monomer, 104 kDa homodimer
- Sequence (Q01655 whole entry): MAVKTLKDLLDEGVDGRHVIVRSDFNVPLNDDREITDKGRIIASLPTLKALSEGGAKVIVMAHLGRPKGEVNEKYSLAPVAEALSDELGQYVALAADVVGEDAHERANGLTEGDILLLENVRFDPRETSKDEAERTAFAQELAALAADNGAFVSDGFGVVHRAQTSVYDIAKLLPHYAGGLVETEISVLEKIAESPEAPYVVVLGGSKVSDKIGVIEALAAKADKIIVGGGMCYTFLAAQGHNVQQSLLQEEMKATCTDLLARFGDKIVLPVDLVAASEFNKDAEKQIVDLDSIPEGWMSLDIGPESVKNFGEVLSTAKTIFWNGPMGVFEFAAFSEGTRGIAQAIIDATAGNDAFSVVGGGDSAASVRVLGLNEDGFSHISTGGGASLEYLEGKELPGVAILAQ
- test: coupled GAPDH/NADH assay, absorbance […] nm
observationType: Ki (µM)
Numbers only, in µM.

Assign Ki to the following record: Nc1ncnc2c1ncn2[C@@H]1O[C@H](COP(=O)(O)OP(=O)(O)O)[C@@H](O)[C@H]1O [ADP]
100
